# SYSTEM_TESTED: recombinant biotinylated PD1/CD279 protein (AcroBiosystems PD1-H82E4) (UniProt Q15116 25-167, biotinylated)
# Sequence (Q15116 25-167 limits assumed): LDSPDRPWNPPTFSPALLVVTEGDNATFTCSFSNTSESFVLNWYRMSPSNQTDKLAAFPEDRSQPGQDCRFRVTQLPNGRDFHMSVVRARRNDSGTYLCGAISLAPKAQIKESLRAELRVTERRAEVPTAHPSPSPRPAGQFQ
# ASSAY_NOTES: ELISA; antibody coated on plate, biotinylated antigen titrated, streptavidin-HRP
# Method: The interaction of the unmodified and of conjugated antibodies their antigens were measured by ELISA assay. For these PD-1 ELISAs, Corning high-binding half-area plates (Fisher Scientific, Reinach, Switzerland) were coated overnight at 4° C. with 25 μl of unmodified and of conjugated anti-PD1 antibodies at 5 μg/ml in PBS. […] ELISA signal was then measured at 450 nm on an EnSpire plate reader from Perkin Elmer (Schwerzenbach, Switzerland). […]
OBSERVATION_TYPE: pKd
Answers are plain numbers, as −log10 of the molar value.

Input line: Provide only the value of recorded pKd for CMP-102 (LZM-009 conjugated to CMP-003, DAR 1, K288) (antibody, not fully specified; Nle at 23, 39, 46 and Hse at 41, 71, 104 (as in SEQ ID NO: 3); ~0.5 kDa PEG on Y45; 0.5 kDa PEG on F42Y whose azide end is joined to the DBCO linker of the antibody; the heavy chain carries a chemical linker to CMP-003 on Lys K288 (Eu numbering) of the Fc; DAR 1) VH: QVQLVQSGAEVKKPGASVKVSCKASGYTFTSYYMYWVRQAPGQGLEWMGGVNPSNGGTNFNEKFKSRVTITADKSTSTAYMELSSLRSEDTAVYYCARRDYRYDMGFDYWGQGTTVTVSS VL: EIVLTQSPATLSLSPGERATISCRASKGVSTSGYSYLHWYQQKPGQAPRLLIYLASYLESGVPARFSGSGSGTDFTLTISSLEPEDFATYYCQHSRELPLTFGTGTKVEIK APTSSSTKKTQLQLEHLLLDLQXILNGINNYKNPKLTRXLXYKFYXPKKATELKHLQCLEEELKPLEEVLXLAQSKNFHLRPRDLISNINVIVLELKGSETTFXCEYADETATIVEFLNRWITFSQSIISTLT
Output line: 10.57
